assay_target: Transcription factor Jun (Homo sapiens)
Sequence (P05412 whole entry): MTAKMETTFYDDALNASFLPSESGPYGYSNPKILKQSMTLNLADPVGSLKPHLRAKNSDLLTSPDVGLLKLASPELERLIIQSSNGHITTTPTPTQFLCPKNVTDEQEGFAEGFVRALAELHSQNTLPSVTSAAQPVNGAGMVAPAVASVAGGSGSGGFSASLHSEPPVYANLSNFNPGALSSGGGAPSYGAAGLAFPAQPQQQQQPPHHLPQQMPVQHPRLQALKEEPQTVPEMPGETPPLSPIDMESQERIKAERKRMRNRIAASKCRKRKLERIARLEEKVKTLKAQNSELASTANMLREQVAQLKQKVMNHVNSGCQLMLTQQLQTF
assay_overview: Inhibition of TPA-induced AP-1 activation in cells expressing beta-lactamase after 18 hrs using FRET substrate by cell-based high-throughput screening assay
measured_metric: IC50 (nM)
Number in nM, nothing else.

Reported IC50 ( CC(C)[C@H]1OC(=O)C=C2C1=C[C@H]1OC(=O)[C@@]3(C)CCC[C@@]2(C)[C@@H]13 [NAGILACTONE F] ) = 1500

Reported IC50 ( CC(C)[C@H]1OC(=O)C=C2[C@]3(C)[C@H]4[C@H](OC(=O)[C@@]4(C)[C@@H](O)[C@H]4O[C@H]43)[C@H]3O[C@]213 [INUMAKILACTONE] ) = 4000
